# System under test: wt hhIYD (iodotyrosine deiodinase from Haliscomenobacter hydrossis) (Haliscomenobacter hydrossis)
# Sequence (F4KU78 1-222): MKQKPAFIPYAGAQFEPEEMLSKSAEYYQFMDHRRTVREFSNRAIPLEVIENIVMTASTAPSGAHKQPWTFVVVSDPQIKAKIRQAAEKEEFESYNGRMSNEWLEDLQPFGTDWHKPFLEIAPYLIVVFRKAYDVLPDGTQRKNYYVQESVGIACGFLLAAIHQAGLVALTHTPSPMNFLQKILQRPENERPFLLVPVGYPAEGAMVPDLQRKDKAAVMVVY
# Protocol text: quenching of active-site FMNox fluorescence
Quantity name: Kd (µM)
Report the value in µM with no unit label.

Qu. Which measured Kd value corresponds to N[C@@H](Cc1cc(I)c(O)c(I)c1)C(=O)O [I2-Tyr] ?
Ans. 2.9
